TGI listing for selected molecules.
- Tested on: MDA-MB-435
- Experiment Notes: NCI tumour cell line growth inhibition, 48 h
Test Readout: TGI

{"Molecule": "O=C(C=P(c1ccccc1)(c1ccccc1)c1ccccc1)C12CC3CC(CC(C3)C1)C2", "Test Readout": "TGI", "Data Value": "26.6 µM"}
{"Molecule": "C[C@]12CC[C@H](O)CC1=CC[C@@H]1[C@@H]2CC[C@]2(C)C(=O)/C(=C/c3cccc(OCCCn4ccnc4)c3)C[C@@H]12", "Test Readout": "TGI", "Data Value": "> 100 µM"}
{"Molecule": "Cn1ncc2c(Nc3ccc(Br)cc3)nc(Nc3ccc(Br)cc3)nc21", "Test Readout": "TGI", "Data Value": "10.7 µM"}
{"Molecule": "CCOC(=O)C1(Cc2ccc(C)cc2)Cc2ccc(C)cc2C1=O (stereo not given)", "Test Readout": "TGI", "Data Value": "12.2 µM"}
{"Molecule": "COC1/C=C\\C=C(/C)C(=O)NC2=CC(=O)C(NCCCl)=C(CC(C)CC(OC)C(O)C(C)/C=C(/C)C1OC(N)=O)C2=O (stereo not given)", "Test Readout": "TGI", "Data Value": "3.72 µM"}
{"Molecule": "O=S(=O)(c1cccc(C(F)(F)F)c1)N1c2ccccc2-n2cccc2C1c1cccnc1 (stereo not given)", "Test Readout": "TGI", "Data Value": "> 42.2 µM"}
{"Molecule": "c1cc(-c2cscc2-c2ccsc2)cs1", "Test Readout": "TGI", "Data Value": "> 100 µM"}
{"Molecule": "CC(C)CN1CN(c2ccccc2)C2(CCN(CC(C)(c3ccc(F)cc3)C3OCCO3)CC2)C1=O (stereo not given)", "Test Readout": "TGI", "Data Value": "23.5 µM"}
{"Molecule": "O=C(Cn1ccnc1[N+](=O)[O-])N(CCO)CCO", "Test Readout": "TGI", "Data Value": "> 250 µM"}
{"Molecule": "COc1ccc(-c2nc3ncccn3c2-c2ccc(S(C)=O)cc2)cc1 (stereo not given)", "Test Readout": "TGI", "Data Value": "53.8 µM"}
